meta.source: ChEMBL document CHEMBL1961873

target: Fibroblast growth factor receptor 2 (Homo sapiens) (UniProt P21802); settings: at 0.1 µM;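 further: values are mean percent inhibition of FGFR2 kinase, measured within the GSK Published Kinase Inhibitor Set (PKIS) screening panel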
Sequence (P21802 22-821 limits assumed): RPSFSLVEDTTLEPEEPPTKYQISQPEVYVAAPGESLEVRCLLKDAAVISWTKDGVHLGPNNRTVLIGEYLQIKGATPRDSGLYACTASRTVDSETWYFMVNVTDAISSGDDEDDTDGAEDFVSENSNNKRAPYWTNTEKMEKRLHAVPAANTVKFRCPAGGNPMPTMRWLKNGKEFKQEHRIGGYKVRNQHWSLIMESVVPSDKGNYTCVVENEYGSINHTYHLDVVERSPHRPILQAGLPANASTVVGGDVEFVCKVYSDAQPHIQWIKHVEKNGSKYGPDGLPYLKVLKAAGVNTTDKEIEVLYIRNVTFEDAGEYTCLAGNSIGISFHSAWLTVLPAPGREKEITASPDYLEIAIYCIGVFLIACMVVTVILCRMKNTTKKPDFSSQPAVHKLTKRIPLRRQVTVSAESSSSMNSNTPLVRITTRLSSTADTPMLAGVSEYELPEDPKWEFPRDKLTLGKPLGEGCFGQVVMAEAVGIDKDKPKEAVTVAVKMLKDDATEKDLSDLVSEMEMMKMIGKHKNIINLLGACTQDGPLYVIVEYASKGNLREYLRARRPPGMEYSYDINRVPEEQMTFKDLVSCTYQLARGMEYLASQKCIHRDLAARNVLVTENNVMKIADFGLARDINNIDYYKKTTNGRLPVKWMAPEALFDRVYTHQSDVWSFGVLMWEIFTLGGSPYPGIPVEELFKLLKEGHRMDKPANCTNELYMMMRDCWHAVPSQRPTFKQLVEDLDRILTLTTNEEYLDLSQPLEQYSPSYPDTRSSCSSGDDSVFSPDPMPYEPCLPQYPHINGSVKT
Each item that follows carries a reported inhibition.
Numeric answer only, unit % assumed.

compound=c1cnn2ncc(-c3ccnc(NCCCN4CCOCC4)n3)c2c1 quantity_measured=inhibition value_units=% value_observed=1
compound=COc1cccc(Nc2nccc(-c3cnn4ncccc34)n2)c1 quantity_measured=inhibition value_units=% value_observed=1.68
compound=COc1ccc(-c2nn3ncccc3c2-c2ccnc(Nc3ccc(F)c(F)c3)n2)cc1 quantity_measured=inhibition value_units=% value_observed=5.14
compound=NS(=O)(=O)c1cccc(N/C=C2\C(=O)Nc3ccccc32)c1 quantity_measured=inhibition value_units=% value_observed=7.77
compound=CN(c1ccc(NC(=O)NCCN2CCOCC2)cc1)c1ccnc(Nc2ccc(CS(C)(=O)=O)cc2)n1 quantity_measured=inhibition value_units=% value_observed=7.93

Query: Given COc1ccc(Nc2ncc(-c3ccccc3)o2)cc1OC , state its recorded inhibition.
Response: 1.29

Query: Given CS(=O)(=O)CCNCc1ccoc1-c1ccc2ncnc(Nc3ccc(OCc4ccccc4)cc3)c2c1 , state its recorded inhibition.
Response: -0.37

Query: Given N#Cc1cccc(Nc2ncc(-c3ccccc3)o2)c1 , state its recorded inhibition.
Response: 2.66

Query: Given Cc1cc(O)cc(C)c1/C=C/c1cncc(C(N)=O)c1 , state its recorded inhibition.
Response: 2.08

Query: Given CC(C)c1ccc(-c2cc(-c3c[nH]nc3-c3ccccn3)ccn2)cc1 , state its recorded inhibition.
Response: -0.22
